Experiment: In vivo pharmacokinetic study in male Sprague-Dawley rats (IV and PO)
Set-up: species or system Sprague-Dawley rat
Details: male, Sprague-Dawley, rat, plasma, po, 10 mg/kg, male SD rats, PO 10 mpk vs IV 2 mpk; read-out: Bioavailability
ASSAY READOUT: Bioavailability (%)
Please give a number only; it is taken to be in %.

Task: Reported Bioavailability for O=C(O)CSc1nnc(Br)n1-c1ccc(C2CC2)c2ccccc12 (racemic) [(±)-Lesinurad, Lesinurad, reference compound] : what is it?
Output: 84.3

---

Test: Stability of compounds in human plasma
Type: in vitro ADME
Conditions: human, plasma, pH 7.4, human plasma, 2 μM, 37° C., 60 min; read-out: Recovery (% remaining)
ASSAY READOUT: recovery at 60 min, 2 μM (%)
State the answer as a number, implicitly in %.

Task: Form field: reported recovery at 60 min, 2 μM of O=C(O)CSc1nnc(Br)n1-c1ccc(C2CC2)c2ccccc12 (single isomer, unassigned) [(+)-Lesinurad]
Output: 99.4

---

Assay: Stability of compounds in SD rat plasma
Assay type: in vitro ADME
Settings: SD, rat, plasma, pH 7.4, SD rat plasma, 2 μM, 37° C., 10 min; read-out: Recovery (% remaining)
ASSAY READOUT: recovery at 10 min, 2 μM (%)
Please reply with the bare figure in % and do not write the unit itself.

Task: Given the compound O=C(O)CSc1nnc(Br)n1-c1ccc(C2CC2)c2ccccc12 (single isomer, unassigned) [(−)-Lesinurad] , what is its reported recovery at 10 min, 2 μM?
Output: 102

---

Experiment: Stability of compounds in SD rat plasma
Type: in vitro ADME
Conditions: SD, rat, plasma, pH 7.4, SD rat plasma, 2 μM, 37° C., 30 min; read-out: Recovery (% remaining)
ASSAY READOUT: recovery at 30 min, 2 μM (%)
Give just the number in %; leave the unit off.

Task: What value of recovery at 30 min, 2 μM has been recorded for this entry: O=C(O)CSc1nnc(Br)n1-c1ccc(C2CC2)c2ccccc12 (single isomer, unassigned) [(−)-Lesinurad]
Output: 99.9

---

Assay: In vivo pharmacokinetic study in male Sprague-Dawley rats (IV and PO)
Set-up: species or system Sprague-Dawley rat
Conditions: male, Sprague-Dawley, rat, plasma, po, 10 mg/kg, male SD rats, PO 10 mpk
ASSAY READOUT: Cmax (µM)
Number in µM, nothing else.

Task: // lookup Cmax for O=C(O)CSc1nnc(Br)n1-c1ccc(C2CC2)c2ccccc12 (single isomer, unassigned) [(+)-Lesinurad]
Output: 7.76

Task: # query: Cmax of entry O=C(O)CSc1nnc(Br)n1-c1ccc(C2CC2)c2ccccc12 (racemic) [(±)-Lesinurad, Lesinurad, reference compound]
Output: 14.5

---

Assay: In vivo pharmacokinetic study in male Sprague-Dawley rats (IV and PO)
Parameters: species or system Sprague-Dawley rat
Conditions: male, Sprague-Dawley, rat, plasma, iv, 2 mg/kg, male SD rats, IV 2 mpk
Kindly state C0 for each of the entries shown.
Dear colleague, please return just the value in µM, with no unit written.

Task: What does the record list as C0 for O=C(O)CSc1nnc(Br)n1-c1ccc(C2CC2)c2ccccc12 (single isomer, unassigned) [(+)-Lesinurad] ?
Output: 11.5

Task: Item under review: O=C(O)CSc1nnc(Br)n1-c1ccc(C2CC2)c2ccccc12 (racemic) [(±)-Lesinurad, Lesinurad, reference compound] . Reported C0?
Output: 11.6
